Biological target: FXR-LBD (pFA-FXR-LBD, Gal4 fusion) in BHK21 cells (Homo sapiens, UniProt Q96RI1)
Sequence (Q96RI1 262-486 limits assumed): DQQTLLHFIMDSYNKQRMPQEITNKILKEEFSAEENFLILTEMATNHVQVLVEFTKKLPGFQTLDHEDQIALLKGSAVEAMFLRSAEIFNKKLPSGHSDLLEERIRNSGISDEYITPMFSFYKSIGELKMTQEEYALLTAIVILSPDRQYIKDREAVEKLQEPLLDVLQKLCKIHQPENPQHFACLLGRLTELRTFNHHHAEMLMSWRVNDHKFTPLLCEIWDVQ
Test: Luciferase transcriptional reporter gene assay
observed-property: EC50 (nM)

1: CC(C)CC(C(=O)NC1CCCCC1)n1c(-c2ccc(Cl)cc2)nc2ccccc21 (centres unmarked)
2: COc1ccc(-c2nc3ccccc3n2C(C(=O)NCc2ccccc2)C2CCCCC2)c(OC)c1 (centres unmarked)
Q. Which has the smaller recorded EC50, 1 or 2 ? Provide the label of your selected option as the answer.
A. 2
(2: 86 nM, 1: 700 nM)

----------
Biological target: FXR ligand binding domain (GST-FXR LBD fusion protein) (Homo sapiens, UniProt Q96RI1)
Assay: Radioligand binding assay (scintillation proximity, radioligand displacement)
pIC50: −log10 of the molar value.
observed-property: pIC50

P: CC(C)CC(C(=O)NC1CCCCC1)n1c(-c2ccc(Cl)cc2)nc2ccccc21 (centres unmarked)
Q: COc1ccc(-c2nc3ccccc3n2C(C(=O)NCc2ccccc2)C2CCCCC2)c(OC)c1 (centres unmarked)
Q. Quick check, higher pIC50 between P and Q ? Provide the label of your selected option as the answer.
A. Q
(Q: 6.30, P: 5.82)
